Consider the following sequences; for each one, report its shrunken log2 fold change.
System: Escherichia coli TOP10
protocol summary: shrunken log2 fold change of peptide-encoding DNA abundance (4.5 h post-induction vs induction); higher = less antimicrobial activity (less host growth inhibition)
applied conditions: time post-induction: 4.5 h; library: site-saturation at positions 5, 18, 19, 20
Give bare numbers.

Illustrative cases are given below, each with its answer.
RRIRQRPPRLPRPRPRPHARPRP ... -0.00608
RRIRARPPRLPRPRPRPVFFPRP ... 0.448
RRIRTRPPRLPRPRPRPPSYPRP ... -0.0622
RRIRNRPPRLPRPRPRPTNEPRP ... 0.239
RRIRHRPPRLPRPRPRPTVCPRP ... 0.196

# return shrunken log2 fold change for each item in the list
1. RRIRLRPPRLPRPRPRPPQLPRP
2. RRIRPRPPRLPRPRPRPYAYPRP
3. RRIRVRPPRLPRPRPRPRNEPRP

Output line:
0.206
-0.192
0.115

Here are 2 sequences. What values of shrunken log2 fold change were reported for them?
1. RRIRVRPPRLPRPRPRPAMDPRP
2. RRIRYRPPRLPRPRPRPDKNPRP

Output line:
0.21
-0.558

* * *

Give measured shrunken log2 fold change for each item. Keep answers brief.
System: Escherichia coli TOP10
protocol summary: shrunken log2 fold change of peptide-encoding DNA abundance (4.5 h post-induction vs induction); higher = less antimicrobial activity (less host growth inhibition)
applied conditions: time post-induction: 4.5 h; library: site-saturation at positions 5, 18, 19, 20
One number for each entry.

Example sequences with recorded shrunken log2 fold change:
RRIRIRPPRLPRPRPRPIVAPRP ... -0.119
RRIRDRPPRLPRPRPRPHIEPRP ... 0.0695
RRIRMRPPRLPRPRPRPLYTPRP ... -0.116
RRIRYRPPRLPRPRPRPESLPRP ... -0.0595

I would be grateful if you could provide shrunken log2 fold change for each of the following entries.
1. RRIRCRPPRLPRPRPRPPGAPRP
2. RRIRDRPPRLPRPRPRPLLSPRP
3. RRIRFRPPRLPRPRPRPANGPRP
4. RRIRTRPPRLPRPRPRPVGRPRP
5. RRIRWRPPRLPRPRPRPPTKPRP
6. RRIRWRPPRLPRPRPRPMCKPRP

Output line:
0.678
0.447
0.0551
0.129
4.13
-0.0527

// batch mode: one shrunken log2 fold change value per listed entry
1. RRIRCRPPRLPRPRPRPLSCPRP
2. RRIRYRPPRLPRPRPRPRDFPRP

Output line:
[-0.184, -0.161]

* * *

Please respond with reported shrunken log2 fold change for every item in the list.
System: Escherichia coli TOP10
protocol summary: shrunken log2 fold change of peptide-encoding DNA abundance (4.5 h post-induction vs induction); higher = less antimicrobial activity (less host growth inhibition)
applied conditions: time post-induction: 4.5 h; library: site-saturation at positions 5, 18, 19, 20

RRIRLRPPRLPRPRPRPKMYPRP ... -0.14
RRIRFRPPRLPRPRPRPAESPRP ... -0.117
RRIRYRPPRLPRPRPRPYCRPRP ... -0.377

Take each entry in turn and give its shrunken log2 fold change.
1. RRIRPRPPRLPRPRPRPIWIPRP
2. RRIRWRPPRLPRPRPRPYKTPRP

Output line:
1: -0.308; 2: -0.0554

For every item below, please supply its shrunken log2 fold change.
1. RRIRSRPPRLPRPRPRPYLIPRP
2. RRIRVRPPRLPRPRPRPFIKPRP
3. RRIRERPPRLPRPRPRPFASPRP
4. RRIRFRPPRLPRPRPRPMGIPRP
5. RRIRARPPRLPRPRPRPHGAPRP

Output line:
-0.363
-0.865
0.00624
-0.23
0.52

Parameter requested: shrunken log2 fold change. Apply to each item below.
1. RRIRLRPPRLPRPRPRPPCHPRP
2. RRIRWRPPRLPRPRPRPFGNPRP
3. RRIRWRPPRLPRPRPRPLAYPRP
4. RRIRRRPPRLPRPRPRPRRNPRP
5. RRIRPRPPRLPRPRPRPVIEPRP
6. RRIRQRPPRLPRPRPRPCKQPRP

Output line:
-0.178
-0.0165
0.0203
0.223
-0.0347
0.0108

Your task in this section: give shrunken log2 fold change for each listed record.
1. RRIRGRPPRLPRPRPRPTGNPRP
2. RRIRMRPPRLPRPRPRPSKAPRP
3. RRIRVRPPRLPRPRPRPIVFPRP
4. RRIRPRPPRLPRPRPRPMDMPRP
5. RRIRIRPPRLPRPRPRPRHSPRP
6. RRIRVRPPRLPRPRPRPCSKPRP
7. RRIRWRPPRLPRPRPRPGYHPRP

Output line:
0.452
0.455
0.0602
-0.784
-0.646
-0.0775
-0.263

* * *

System: Escherichia coli TOP10
protocol summary: shrunken log2 fold change of peptide-encoding DNA abundance (4.5 h post-induction vs induction); higher = less antimicrobial activity (less host growth inhibition)
applied conditions: time post-induction: 4.5 h; library: site-saturation at positions 5, 18, 19, 20
Would you mind labelling by shrunken log2 fold change? At or over -0.002 is t, under is f.

RRIRDRPPRLPRPRPRPWDNPRP ... t
RRIRDRPPRLPRPRPRPQLQPRP ... f
RRIRRRPPRLPRPRPRPNQRPRP ... t

Input line: Exam item: decide whether the reported shrunken log2 fold change for `RRIRTRPPRLPRPRPRPMPLPRP` is at least -0.002.
Output line: f

Input line: Confirm if shrunken log2 fold change reported for the sequence `RRIRTRPPRLPRPRPRPPENPRP` is -0.002 or above.
Output line: t

Input line: Given the entry `RRIRERPPRLPRPRPRPWFAPRP` , answer whether its shrunken log2 fold change meets or surpasses -0.002.
Output line: f

* * *

System: Escherichia coli TOP10
protocol summary: shrunken log2 fold change of peptide-encoding DNA abundance (4.5 h post-induction vs induction); higher = less antimicrobial activity (less host growth inhibition)
applied conditions: time post-induction: 4.5 h; library: site-saturation at positions 5, 18, 19, 20
Answer each item with its documented shrunken log2 fold change.
One number for each entry.

RRIRMRPPRLPRPRPRPVITPRP ... 0.043
RRIRERPPRLPRPRPRPADRPRP ... -0.173
RRIRRRPPRLPRPRPRPECVPRP ... 0.419
RRIRLRPPRLPRPRPRPFRCPRP ... -0.181

Record shrunken log2 fold change for all entries; do not skip any.
1. RRIRCRPPRLPRPRPRPWINPRP
2. RRIRMRPPRLPRPRPRPCAEPRP
3. RRIRWRPPRLPRPRPRPEIVPRP

Output line:
[0.102, 2.31, -0.00443]

Consider the following items and state reported shrunken log2 fold change for each.
1. RRIRPRPPRLPRPRPRPTVMPRP
2. RRIRIRPPRLPRPRPRPPAMPRP
3. RRIRGRPPRLPRPRPRPACSPRP
4. RRIRDRPPRLPRPRPRPTWWPRP
5. RRIRQRPPRLPRPRPRPVPYPRP
6. RRIRFRPPRLPRPRPRPKLRPRP

Output line:
1. 0.0636
2. 1.68
3. 0.773
4. 0.433
5. -0.363
6. 0.147

// each sequence listed below needs its shrunken log2 fold change
1. RRIRWRPPRLPRPRPRPNAHPRP
2. RRIRYRPPRLPRPRPRPPARPRP

Output line:
[0.0415, 0.119]

* * *

So I've got a bunch of sequences here, and I need their shrunken log2 fold change values.
Test system: Escherichia coli TOP10;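 note: peptides expressed intracellularly from a pBAD plasmid library in pooled LB shake-flask culture, induced with 0.3% L-arabinose, DNA abundance read by NGS, three biological replicates, DESeq2 with apeglm shrinkage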
protocol summary: shrunken log2 fold change of peptide-encoding DNA abundance (4.5 h post-induction vs induction); higher = less antimicrobial activity (less host growth inhibition)
applied conditions: time post-induction: 4.5 h; library: site-saturation at positions 5, 18, 19, 20
Answers are plain numbers.

RRIRPRPPRLPRPRPRPYSEPRP ... 0.0371
RRIRERPPRLPRPRPRPAARPRP ... 0.226
RRIRFRPPRLPRPRPRPCTFPRP ... -0.0554
RRIRVRPPRLPRPRPRPRQGPRP ... 0.317
RRIRTRPPRLPRPRPRPTWPPRP ... 0.439

Record shrunken log2 fold change per entry; entries follow.
1. RRIRMRPPRLPRPRPRPQLSPRP
2. RRIRRRPPRLPRPRPRPLFEPRP

Output line:
1. -0.102
2. 0.245

Please state, for each entry, its recorded shrunken log2 fold change.
1. RRIRTRPPRLPRPRPRPAACPRP
2. RRIRNRPPRLPRPRPRPSLLPRP
3. RRIRLRPPRLPRPRPRPEMRPRP
4. RRIRARPPRLPRPRPRPDSEPRP
5. RRIRKRPPRLPRPRPRPMNNPRP

Output line:
1. 0.0816
2. -0.19
3. 0.0659
4. 0.481
5. -0.0152

Parameter requested: shrunken log2 fold change. Apply to each item below.
1. RRIRFRPPRLPRPRPRPGPHPRP
2. RRIRDRPPRLPRPRPRPVVRPRP
3. RRIRMRPPRLPRPRPRPVKRPRP
4. RRIRGRPPRLPRPRPRPPEQPRP
5. RRIRLRPPRLPRPRPRPVPRPRP
6. RRIRQRPPRLPRPRPRPMRGPRP
7. RRIRERPPRLPRPRPRPCQLPRP
8. RRIRVRPPRLPRPRPRPYAWPRP

Output line:
[0.305, 0.155, -0.0121, 1.29, 0.352, 0.904, -0.265, 0.0346]
